# System: SF-295 CNS
# method description: NCI-60 one-dose screen, 48 h
# measurement conditions: 10 µM unless noted
This is part of a sample that, as a whole, favours compounds with a hit. Of some 83,000 tested, about 20% had one in any assay. Active and inactive are the calls of the source. How the source made its calls: active means growth percent below 10; inactive means the rest.
Tick one outcome: yes for active, no for inactive

Solved cases (5 shown):
molecule	class label
O=C(Cc1ccccc1)NNc1nc(Cl)nc(N2CCN(C(c3ccccc3)c3ccccc3)CC2)n1	no
CN1CCC(=C(c2ccccc2)c2ccccc2)C(c2ccccc2)C1 (stereo not given)	no
Cc1nc(N)nc(N[C@@H](C)c2nc3cccc(NCc4ccc(C(=O)NO)cc4)c3c(=O)n2-c2ccccc2)n1	no
CCCCOc1ccc(/C(C)=N/Nc2cc(C)nc3ccc(Br)cc23)cc1	no
O=C(c1nnc(Nc2ccccc2Br)o1)c1c[nH]c2ccccc12	no

Per the records of this test, what outcome belongs to `COC(=O)/C=C1\S/C(=N\NC(=O)c2cc3ccc2/C=C\c2ccc(cc2)/C=C\3)N(Cc2ccccc2)C1=O` ? no

Per the records of this test, what outcome belongs to `CCN(CC)CC[n+]1cc2cc(OC)c(OC)cc2c2ccc3cc4c(cc3c21)OCO4` ? yes

Per the records of this test, what outcome belongs to CC(C)(C)[Si](C)(C)OC1[C@@H](O[Si](C)(C)C(C)(C)C)[C@@H](CNC(=O)NC(=O)CCl)O[C@H]1n1cnc2c(NC(=O)Nc3ccccc3)ncnc21 (stereo not given in full) ? yes

Per the records of this test, what outcome belongs to `CN(CCN(C)c1ccc(C(=N)N)cc1)c1ccc(C(=N)N)cc1` ? no

Per the records of this test, what outcome belongs to `COc1ccc(C(=O)CSc2nc(-c3cc(OC)ccc3OC)cc(-c3ccc(Cl)cc3)c2C#N)cc1` ? no
